- System: native VAR2CSA on FCR3-CSA infected erythrocytes (Plasmodium falciparum FCR3, UniProt Q6UDW7, strain)
- Assay text: flow cytometry on cells
Property: binding result

VHH874 (VHH) VHH: QVQLQESGGGLVQAGGSLRLSCAASGRAFSDYAMGWFRQAPGKERDFVAAISWNGGNTYYSDSVKGRFTISRDNAKNTVYLQMNSLKPEDTAVYYCAANDLAVPELLMPRVETYDYWGQGTQVTVSS
binds
VHH871 (VHH) VHH: QVQLQESGGGLVQAGGSLRLSCAASGSIFSIHAMGWYRQAPGKQRELVAAITSGGSTNYGDSVKGRFTISEDNAKNTVYLQMNGLKPEDTAVYYCAADNDGLGYVYWGQGTQVTVSS
binds
VHH860 (VHH) VHH: QVQLQESGGGLVQAGGSLRLSCAASGRAFSDYAMGWFRQAPGKERDFVAAISWNGGNTYYSDSVKGRFTISRDNAENTVYLQMNSLKPEDTAVYYCAANDLAVPELLMPRVETYDYWGQGTQVTVSS
binds

All figures here come from paper PMC5376981.
